// data source = patent US11028072B2

I'd be grateful if you could share measured log10(Ki) for these entries.
molecular target: Human dihydrofolate reductase (hDHFR) (Homo sapiens, UniProt P00374)
Sequence (P00374 whole entry): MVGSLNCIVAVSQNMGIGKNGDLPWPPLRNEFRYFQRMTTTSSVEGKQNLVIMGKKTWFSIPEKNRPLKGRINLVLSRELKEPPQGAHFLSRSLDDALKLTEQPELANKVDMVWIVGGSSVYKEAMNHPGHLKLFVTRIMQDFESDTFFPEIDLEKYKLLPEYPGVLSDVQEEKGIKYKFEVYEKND
The base-10 logarithm of Ki, taken with Ki in nM, is what appears here.

Problem: State the recorded log10(Ki) for this entry: CCc1nc(N)nc(N)c1-c1cn(CCCOc2ccc(C(=O)OC)cc2)nn1 [Compound 12]
Result: 2.94

Problem: Same question for CCc1nc(N)nc(N)c1-c1cn(CCCc2ccccc2)nn1 [Compound 8] please.
Result: 3.57

Problem: Same question for CCc1nc(N)nc(N)c1OCc1cc(-c2ccccc2)no1 [Compound 33] please.
Result: 3.17

Problem: Same question for CCc1nc(N)nc(N)c1OCc1csc(-c2ccc(OC)cc2)n1 [Compound 68] please.
Result: 2.27

Problem: Same question for CCc1nc(N)nc(N)c1OCc1csc(-c2cccc(OCC(=O)O)c2)n1 [Compound 64] please.
Result: 2.26

Problem: Same question for CCc1nc(N)nc(N)c1OCc1csc(-c2cccc(C(=O)O)c2)n1.Cl [Compound 66, Hydrochloride] please.
Result: 2.01
